Origin of the recorded values: the PETadex activity labels (doi:10.1016/j.bbalip.2005.11.003)

Substrate: tripropionin
measurement_conditions: pH 7; 25 °C
experimental_endpoint: Km (mM)
One number for each entry, in mM.

If you can, please state the reported Km value of unnamed (protein) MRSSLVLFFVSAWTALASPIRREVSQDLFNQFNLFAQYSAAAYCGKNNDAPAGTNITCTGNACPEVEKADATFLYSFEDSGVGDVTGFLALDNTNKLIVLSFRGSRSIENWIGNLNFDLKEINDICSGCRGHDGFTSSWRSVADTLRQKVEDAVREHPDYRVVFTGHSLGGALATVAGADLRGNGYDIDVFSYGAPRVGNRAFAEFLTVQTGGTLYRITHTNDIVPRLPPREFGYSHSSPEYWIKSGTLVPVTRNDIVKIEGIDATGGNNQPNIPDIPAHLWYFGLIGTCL .
14
